These entries and their values trace back to ChEMBL document CHEMBL1122090.

- experimental details: Relative inhibition index was the ratio between AK-M and AK II
- Assay type: functional
Label scheme for Relative inhibition index: band 1: < 4; band 2: ≥ 4 and < 6; band 3: ≥ 6

Ask | Dear colleague, I would appreciate it if you could identify the bin for Nc1nc(N)c2ncn([C@@H]3O[C@H](COP(=O)(O)O)[C@@H](O)[C@H]3O)c2n1 and reply at your convenience.
Reply | band 1

Ask | // return the class label for C[C@H](OP(=O)(O)O)[C@H]1OC(n2cnc3c(N)ncnc32)[C@H](O)[C@@H]1O (stereo partly specified)
Reply | band 2

Ask | Category of CC1O[C@@H]2[C@H](O1)[C@@H](COP(=O)(O)O)O[C@H]2n1cnc2c(N)ncnc21 (stereo partly specified) :
Reply | band 2

Ask | Class (by measured Relative inhibition index) for CCC1O[C@@H]2[C@H](O1)[C@@H](COP(=O)(O)O)O[C@H]2n1cnc2c(N)ncnc21 (stereo partly specified)
Reply | band 1

Ask | Class label required: CNc1nc(N)c2ncn([C@@H]3O[C@H](COP(=O)(O)O)[C@@H](O)[C@H]3O)c2n1
Reply | band 3

Ask | Bin this entry: CN(C)c1nc(N)c2ncn(C3O[C@H](COP(=O)(O)O)[C@@H](O)[C@H]3O)c2n1 (stereo partly specified)
Reply | band 2

Ask | Dear colleague, I would appreciate it if you could identify the bin for Nc1nc(Cl)nc2c1ncn2[C@@H]1O[C@H](COP(=O)(O)O)[C@@H](O)[C@H]1O and reply at your convenience.
Reply | band 2

Ask | Input CO[C@@H]1[C@H](O)[C@@H](COP(=O)(O)O)O[C@H]1n1cnc2c(N)ncnc21 ; output its category
Reply | band 3

Ask | Which bin, given its Relative inhibition index, does Nc1ncnc2c1ncn2[C@@H]1O[C@H](CCP(=O)(O)O)[C@@H](O)[C@H]1O occupy?
Reply | band 2

Ask | Field: class (Relative inhibition index) — entry: C[C@@H]1[C@H](O)[C@@H](COP(=O)(O)O)O[C@H]1n1cnc2c(N)ncnc21
Reply | band 1

Ask | Lab note: sort CC1(C)O[C@@H]2[C@H](O1)[C@@H](COP(=O)(O)O)O[C@H]2n1cnc2c(N)ncnc21 into the matching Relative inhibition index band.
Reply | band 3

Ask | Please report the category associated with C=CC[C@]1(COP(=O)(O)O)OC(n2cnc3c(N)ncnc32)[C@H](O)[C@@H]1O (stereo partly specified) , nothing else.
Reply | band 2

Ask | GET /class?item= Nc1ncnc2c1ncn2[C@@H]1O[C@H](/C=C/P(=O)(O)O)[C@@H](O)[C@H]1O
Reply | band 2

Ask | State the class of the compound shown: CC[C@H](OP(=O)(O)O)[C@H]1OC(n2cnc3c(N)ncnc32)[C@H](O)[C@@H]1O (stereo partly specified)
Reply | band 3

Ask | # bin label for CCC[C@H](OP(=O)(O)O)[C@H]1OC(n2cnc3c(N)ncnc32)[C@H](O)[C@@H]1O (stereo partly specified)
Reply | band 2
